Every entry's value here was drawn from patent US20250152585A1.

Entries annotated with measured Kd
# Target Or System: full length N-terminally FLAG-tagged PARP1 (Homo sapiens, UniProt P09874)
# Sequence (P09874 whole entry): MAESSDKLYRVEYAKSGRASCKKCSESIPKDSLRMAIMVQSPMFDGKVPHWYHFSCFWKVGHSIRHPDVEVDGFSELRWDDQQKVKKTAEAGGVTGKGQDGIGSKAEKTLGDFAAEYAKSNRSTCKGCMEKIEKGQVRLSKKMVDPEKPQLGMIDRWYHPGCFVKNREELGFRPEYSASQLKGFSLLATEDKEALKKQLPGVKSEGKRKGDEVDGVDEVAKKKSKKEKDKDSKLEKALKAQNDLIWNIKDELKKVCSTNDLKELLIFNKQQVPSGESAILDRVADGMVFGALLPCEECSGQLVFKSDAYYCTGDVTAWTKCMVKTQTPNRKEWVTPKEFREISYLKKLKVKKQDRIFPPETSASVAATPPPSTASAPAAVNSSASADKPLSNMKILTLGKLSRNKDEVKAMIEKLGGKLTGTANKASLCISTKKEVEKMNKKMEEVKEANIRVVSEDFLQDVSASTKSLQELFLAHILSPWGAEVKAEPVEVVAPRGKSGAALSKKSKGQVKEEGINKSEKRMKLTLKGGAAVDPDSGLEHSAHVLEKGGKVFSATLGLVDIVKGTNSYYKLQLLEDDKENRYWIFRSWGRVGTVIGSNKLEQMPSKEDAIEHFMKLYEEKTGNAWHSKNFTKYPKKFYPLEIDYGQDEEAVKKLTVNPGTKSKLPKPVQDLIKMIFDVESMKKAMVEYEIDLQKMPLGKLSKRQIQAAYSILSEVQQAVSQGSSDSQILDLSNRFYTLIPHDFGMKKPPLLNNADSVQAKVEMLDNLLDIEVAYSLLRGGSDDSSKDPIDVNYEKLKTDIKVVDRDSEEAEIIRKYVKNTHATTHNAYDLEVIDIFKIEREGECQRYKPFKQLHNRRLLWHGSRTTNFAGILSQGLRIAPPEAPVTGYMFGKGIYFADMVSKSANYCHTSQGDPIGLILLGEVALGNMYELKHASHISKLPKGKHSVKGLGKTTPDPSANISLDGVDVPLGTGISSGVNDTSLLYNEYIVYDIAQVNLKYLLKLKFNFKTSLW
# Test Description: PARP1 probe displacement HTRF assay
# Condition Label: read-out: PARP1 HTRF; binned Kd, probe displacement HTRF
Measured Attribute: Kd

>>> recorded_measurement("CNC(=O)c1cnc(N2CCC(N3CCC(c4nc5ccccc5c(=O)[nH]4)C3)CC2)nc1 (racemic)")
"10 to 100 nM"
>>> recorded_measurement("CCc1ccc(C2CCN(C3CCN(c4ccc(C#N)cn4)CC3)C2)[nH]c1=O (single isomer, unassigned) [Compound 332b]")
"< 10 nM"
>>> recorded_measurement("CNC(=O)c1cc(Cl)c(N2CCC(N3CCC(c4cc5ccc(F)cc5c(=O)[nH]4)C3)CC2)cn1 (single isomer, unassigned) [Compound 236a]")
"10 to 100 nM"
>>> recorded_measurement("CNC(=O)c1ncc(N2CCC(N3CCC(c4cc5ccc(F)cc5c(=O)[nH]4)C3)CC2)c(C)n1 (single isomer, unassigned) [Compound 265b]")
"< 10 nM"
>>> recorded_measurement("CCc1ccc(C2CCN(C3CCN(c4cnc(C(=O)NC)cc4F)CC3)C2)[nH]c1=O (racemic)")
"< 10 nM"
>>> recorded_measurement("CNC(=O)c1ncc(N2CCC(N3CCC(c4cc5ccc(F)cc5c(=O)[nH]4)C3)CC2)cc1F (single isomer, unassigned) [Compound 395a]")
"< 10 nM"
>>> recorded_measurement("CCc1ccc(C2CCN(C3CCN(c4ccc(C(=O)NC)nc4Cl)CC3)C2)[nH]c1=O (single isomer, unassigned) [Compound 239a]")
"< 10 nM"
>>> recorded_measurement("CNC(=O)c1ccc(N2CCC(N3CCC(c4[nH]c(=O)c5ccccc5c4C)C3)CC2)cn1 (racemic)")
"< 10 nM"
>>> recorded_measurement("N#Cc1nc(C(=O)NC2CC2)ccc1N1CCC(N2CCC(c3cc4cccc(F)c4c(=O)[nH]3)C2)CC1 (single isomer, unassigned) [Compound 410a]")
"< 10 nM"
>>> recorded_measurement("CNC(=O)c1cc(N2CCC(N3CCC(c4cc5ccccc5c(=O)[nH]4)C3)CC2)cs1 (racemic)")
"< 10 nM"
>>> recorded_measurement("CS(=O)(=O)Nc1ccc(N2CCC(N3CCC(c4cc5ccccc5c(=O)[nH]4)C3)CC2)cc1 (single isomer, unassigned) [Compound 251a]")
"100 to 1000 nM"
>>> recorded_measurement("CNC(=O)c1ccc(N2CCC(N3CCC(c4nc5c(c(=O)[nH]4)NCCN5)C3)CC2)cn1 (racemic)")
"10 to 100 nM"
>>> recorded_measurement("CNC(=O)c1ccc(N2CCC(N3CCC(c4cc5ccc(F)cc5c(=O)[nH]4)C3)CC2)c(Cl)n1 (single isomer, unassigned) [Compound 223b]")
"< 10 nM"
>>> recorded_measurement("CCc1ccc(C2CCN(C3CCN(c4ccc(C(=O)NCC(F)F)nc4)CC3)C2)[nH]c1=O (single isomer, unassigned) [Compound 354b]")
"< 10 nM"
>>> recorded_measurement("N#Cc1ccc(N2CCC(N3CCC(c4cc5cccc(F)c5c(=O)[nH]4)C3)CC2)c(Cl)c1 (single isomer, unassigned) [Compound 378a]")
"< 10 nM"
>>> recorded_measurement("N#Cc1ccc(N2CCC(N3CCC(c4cc5cccc(F)c5c(=O)[nH]4)C3)CC2)nc1 (single isomer, unassigned) [Compound 340b]")
"10 to 100 nM"
>>> recorded_measurement("O=c1[nH]c(C2CCN(C3CCN(c4ccc(C5=NCCN5)cc4)CC3)C2)nc2ccccc12 (racemic)")
"10 to 100 nM"
>>> recorded_measurement("CNC(=O)c1ccc(N2CCC(N3CCC(c4cc5c(F)cncc5c(=O)[nH]4)C3)CC2)cn1 (single isomer, unassigned) [Compound 331a]")
"< 10 nM"
>>> recorded_measurement("CCc1ccc(C2CCN(C3CCN(c4ccc(C#N)cc4)CC3)C2)[nH]c1=O (single isomer, unassigned) [Compound 317b]")
"< 10 nM"
>>> recorded_measurement("CCc1ccc(C2CCN(C3CCN(c4ccc(C#N)nc4)CC3)C2)[nH]c1=O (single isomer, unassigned) [Compound 326a]")
"100 to 1000 nM"
>>> recorded_measurement("CCc1ccc(C2CCN(C3CCN(c4ccc(C#N)nc4)CC3)C2)[nH]c1=O (single isomer, unassigned) [Compound 326b]")
"< 10 nM"
>>> recorded_measurement("CNC(=O)c1ccc(N2CCC(N3CCC(c4cc5ncc(Cl)cc5c(=O)[nH]4)C3)CC2)cn1 (racemic)")
"< 10 nM"
>>> recorded_measurement("CNC(=O)c1ccc(N2CCC(N3CCC(c4cc5ncc(F)cc5c(=O)[nH]4)C3)CC2)cn1 (racemic) [Compound 315rac]")
"< 10 nM"
>>> recorded_measurement("N#Cc1ccc(N2CCC(N3CCC(c4cc5ccc(F)cc5c(=O)[nH]4)C3)CC2)c(Cl)c1 (single isomer, unassigned) [Compound 386b]")
"< 10 nM"
>>> recorded_measurement("CCc1ccc(C2CCN(C3CCN(c4ccc(C(=O)NC5CC5)nc4F)CC3)C2)[nH]c1=O (single isomer, unassigned) [Compound 353a]")
"< 10 nM"
